# Test system: Liver
# Assay Info: Biodistribution in ICR mouse liver at 925 KBq, iv after 30 mins by gamma counting
# Format: ADME, organism-based
# Condition Label: in vivo, 0.5 h

>  <Compound>
CNc1ccc(/C=C/c2ccc(OCCOCCOCCOCCOCCOCCOCC(COCCOCCOCCOCCOCCOCCOc3ccc(/C=C/c4ccc(NC)cc4)cn3)OCC[18F])nc2)cc1

>  <Drug uptake>
16 % ID/g

$$$$
>  <Compound>
CNc1ccc(/C=C/c2ccc(OCCOCCOCCOCCOCC(COCCOCCOCCOCCOc3ccc(/C=C/c4ccc(NC)cc4)cn3)OCC[18F])nc2)cc1

>  <Drug uptake>
21.4 % ID/g

$$$$
>  <Compound>
CNc1ccc(/C=C/c2ccc(OCCOCCOCC[18F])nc2)cc1 [FLORBETAPIR F 18]

>  <Drug uptake>
12.9 % ID/g

$$$$
>  <Compound>
CNc1ccc(/C=C/c2ccc(OCCOCCOCCOCCOCCOCC(COCCOCCOCCOCCOCCOc3ccc(/C=C/c4ccc(NC)cc4)cn3)OCC[18F])nc2)cc1

>  <Drug uptake>
20 % ID/g

$$$$

---

# System: Kidney
# Assay Info: Biodistribution in ICR mouse kidney at 925 KBq, iv after 2 mins by gamma counting
# Format: ADME, organism-based
# Condition Label: in vivo

>  <Item Smiles>
CNc1ccc(/C=C/c2ccc(OCCOCCOCCOCCOCCOCC(COCCOCCOCCOCCOCCOc3ccc(/C=C/c4ccc(NC)cc4)cn3)OCC[18F])nc2)cc1

>  <Measurement Target>
Kidney

>  <Unit Name>
% ID/g

>  <Drug uptake>
14.9

$$$$
>  <Item Smiles>
CNc1ccc(/C=C/c2ccc(OCCOCCOCCOCCOCC(COCCOCCOCCOCCOc3ccc(/C=C/c4ccc(NC)cc4)cn3)OCC[18F])nc2)cc1

>  <Measurement Target>
Kidney

>  <Unit Name>
% ID/g

>  <Drug uptake>
8.13

$$$$
>  <Item Smiles>
CNc1ccc(/C=C/c2ccc(OCCOCCOCCOCCOCCOCCOCC(COCCOCCOCCOCCOCCOCCOc3ccc(/C=C/c4ccc(NC)cc4)cn3)OCC[18F])nc2)cc1

>  <Measurement Target>
Kidney

>  <Unit Name>
% ID/g

>  <Drug uptake>
13.7

$$$$
>  <Item Smiles>
CNc1ccc(/C=C/c2ccc(OCCOCCOCC[18F])nc2)cc1

>  <Measurement Target>
Kidney

>  <Unit Name>
% ID/g

>  <Drug uptake>
10.9

$$$$

---

# Test system: Bone
# Assay Info: Biodistribution in ICR mouse bone at 925 KBq, iv after 30 mins by gamma counting
# Format: ADME, organism-based, Bone element
# Condition Label: in vivo, 0.5 h
Measured Endpoint: Drug uptake (% ID/g)

>  <Compound>
CNc1ccc(/C=C/c2ccc(OCCOCCOCC[18F])nc2)cc1 [FLORBETAPIR F 18]

>  <Measurement Target>
Bone

>  <Measured Endpoint>
Drug uptake

>  <Quantitative Readout>
1.22

$$$$
>  <Compound>
CNc1ccc(/C=C/c2ccc(OCCOCCOCCOCCOCC(COCCOCCOCCOCCOc3ccc(/C=C/c4ccc(NC)cc4)cn3)OCC[18F])nc2)cc1

>  <Measurement Target>
Bone

>  <Measured Endpoint>
Drug uptake

>  <Quantitative Readout>
2.34

$$$$
>  <Compound>
CNc1ccc(/C=C/c2ccc(OCCOCCOCCOCCOCCOCCOCC(COCCOCCOCCOCCOCCOCCOc3ccc(/C=C/c4ccc(NC)cc4)cn3)OCC[18F])nc2)cc1

>  <Measurement Target>
Bone

>  <Measured Endpoint>
Drug uptake

>  <Quantitative Readout>
1.36

$$$$
>  <Compound>
CNc1ccc(/C=C/c2ccc(OCCOCCOCCOCCOCCOCC(COCCOCCOCCOCCOCCOc3ccc(/C=C/c4ccc(NC)cc4)cn3)OCC[18F])nc2)cc1

>  <Measurement Target>
Bone

>  <Measured Endpoint>
Drug uptake

>  <Quantitative Readout>
1.8

$$$$

---

# Tested on: Blood
# Assay Info: Biodistribution in ICR mouse blood at 925 KBq, iv after 2 mins by gamma counting
# Type: ADME, organism-based
# Condition Label: in vivo
Measured Endpoint: Drug uptake (% ID/g)

>  <Item Smiles>
CNc1ccc(/C=C/c2ccc(OCCOCCOCCOCCOCC(COCCOCCOCCOCCOc3ccc(/C=C/c4ccc(NC)cc4)cn3)OCC[18F])nc2)cc1

>  <Unit Name>
% ID/g

>  <Quantitative Readout>
4.77

$$$$
>  <Item Smiles>
CNc1ccc(/C=C/c2ccc(OCCOCCOCC[18F])nc2)cc1

>  <Unit Name>
% ID/g

>  <Quantitative Readout>
3.14

$$$$
>  <Item Smiles>
CNc1ccc(/C=C/c2ccc(OCCOCCOCCOCCOCCOCCOCC(COCCOCCOCCOCCOCCOCCOc3ccc(/C=C/c4ccc(NC)cc4)cn3)OCC[18F])nc2)cc1

>  <Unit Name>
% ID/g

>  <Quantitative Readout>
3.12

$$$$
>  <Item Smiles>
CNc1ccc(/C=C/c2ccc(OCCOCCOCCOCCOCCOCC(COCCOCCOCCOCCOCCOc3ccc(/C=C/c4ccc(NC)cc4)cn3)OCC[18F])nc2)cc1

>  <Unit Name>
% ID/g

>  <Quantitative Readout>
2.55

$$$$

---

# Test system: Muscle tissue
# Assay Info: Biodistribution in ICR mouse muscle at 925 KBq, iv after 30 mins by gamma counting
# Assay type: ADME, organism-based
# Condition Label: in vivo, 0.5 h
Measured Endpoint: Drug uptake (% ID/g)

>  <Item Smiles>
CNc1ccc(/C=C/c2ccc(OCCOCCOCCOCCOCC(COCCOCCOCCOCCOc3ccc(/C=C/c4ccc(NC)cc4)cn3)OCC[18F])nc2)cc1

>  <Measured Endpoint>
Drug uptake

>  <Unit Name>
% ID/g

>  <Quantitative Readout>
1.21

$$$$
>  <Item Smiles>
CNc1ccc(/C=C/c2ccc(OCCOCCOCCOCCOCCOCC(COCCOCCOCCOCCOCCOc3ccc(/C=C/c4ccc(NC)cc4)cn3)OCC[18F])nc2)cc1

>  <Measured Endpoint>
Drug uptake

>  <Unit Name>
% ID/g

>  <Quantitative Readout>
1.62

$$$$
>  <Item Smiles>
CNc1ccc(/C=C/c2ccc(OCCOCCOCC[18F])nc2)cc1

>  <Measured Endpoint>
Drug uptake

>  <Unit Name>
% ID/g

>  <Quantitative Readout>
1.78

$$$$
>  <Item Smiles>
CNc1ccc(/C=C/c2ccc(OCCOCCOCCOCCOCCOCCOCC(COCCOCCOCCOCCOCCOCCOc3ccc(/C=C/c4ccc(NC)cc4)cn3)OCC[18F])nc2)cc1

>  <Measured Endpoint>
Drug uptake

>  <Unit Name>
% ID/g

>  <Quantitative Readout>
1.29

$$$$

---

# System: Blood
# Assay Info: Biodistribution in ICR mouse blood at 925 KBq, iv after 30 mins by gamma counting
# Assay type: ADME, organism-based
# Condition Label: in vivo, 0.5 h

>  <Item Smiles>
CNc1ccc(/C=C/c2ccc(OCCOCCOCCOCCOCCOCCOCC(COCCOCCOCCOCCOCCOCCOc3ccc(/C=C/c4ccc(NC)cc4)cn3)OCC[18F])nc2)cc1

>  <Drug uptake>
1.4 % ID/g

$$$$
>  <Item Smiles>
CNc1ccc(/C=C/c2ccc(OCCOCCOCC[18F])nc2)cc1

>  <Drug uptake>
2.8 % ID/g

$$$$
>  <Item Smiles>
CNc1ccc(/C=C/c2ccc(OCCOCCOCCOCCOCC(COCCOCCOCCOCCOc3ccc(/C=C/c4ccc(NC)cc4)cn3)OCC[18F])nc2)cc1

>  <Drug uptake>
1.54 % ID/g

$$$$
>  <Item Smiles>
CNc1ccc(/C=C/c2ccc(OCCOCCOCCOCCOCCOCC(COCCOCCOCCOCCOCCOc3ccc(/C=C/c4ccc(NC)cc4)cn3)OCC[18F])nc2)cc1

>  <Drug uptake>
1.32 % ID/g

$$$$

---

# System: Kidney
# Assay Info: Biodistribution in ICR mouse kidney at 925 KBq, iv after 30 mins by gamma counting
# Format: ADME, organism-based
# Condition Label: in vivo, 0.5 h

>  <Item Smiles>
CNc1ccc(/C=C/c2ccc(OCCOCCOCC[18F])nc2)cc1

>  <Drug uptake, % ID/g>
6.31

$$$$
>  <Item Smiles>
CNc1ccc(/C=C/c2ccc(OCCOCCOCCOCCOCC(COCCOCCOCCOCCOc3ccc(/C=C/c4ccc(NC)cc4)cn3)OCC[18F])nc2)cc1

>  <Drug uptake, % ID/g>
9.36

$$$$
>  <Item Smiles>
CNc1ccc(/C=C/c2ccc(OCCOCCOCCOCCOCCOCCOCC(COCCOCCOCCOCCOCCOCCOc3ccc(/C=C/c4ccc(NC)cc4)cn3)OCC[18F])nc2)cc1

>  <Drug uptake, % ID/g>
11.7

$$$$
>  <Item Smiles>
CNc1ccc(/C=C/c2ccc(OCCOCCOCCOCCOCCOCC(COCCOCCOCCOCCOCCOc3ccc(/C=C/c4ccc(NC)cc4)cn3)OCC[18F])nc2)cc1

>  <Drug uptake, % ID/g>
13.4

$$$$

Source of measurements: ChEMBL document CHEMBL2040779
